Molecular target: Sodium/glucose cotransporter 1 (Homo sapiens, UniProt P13866)
Sequence (P13866 whole entry): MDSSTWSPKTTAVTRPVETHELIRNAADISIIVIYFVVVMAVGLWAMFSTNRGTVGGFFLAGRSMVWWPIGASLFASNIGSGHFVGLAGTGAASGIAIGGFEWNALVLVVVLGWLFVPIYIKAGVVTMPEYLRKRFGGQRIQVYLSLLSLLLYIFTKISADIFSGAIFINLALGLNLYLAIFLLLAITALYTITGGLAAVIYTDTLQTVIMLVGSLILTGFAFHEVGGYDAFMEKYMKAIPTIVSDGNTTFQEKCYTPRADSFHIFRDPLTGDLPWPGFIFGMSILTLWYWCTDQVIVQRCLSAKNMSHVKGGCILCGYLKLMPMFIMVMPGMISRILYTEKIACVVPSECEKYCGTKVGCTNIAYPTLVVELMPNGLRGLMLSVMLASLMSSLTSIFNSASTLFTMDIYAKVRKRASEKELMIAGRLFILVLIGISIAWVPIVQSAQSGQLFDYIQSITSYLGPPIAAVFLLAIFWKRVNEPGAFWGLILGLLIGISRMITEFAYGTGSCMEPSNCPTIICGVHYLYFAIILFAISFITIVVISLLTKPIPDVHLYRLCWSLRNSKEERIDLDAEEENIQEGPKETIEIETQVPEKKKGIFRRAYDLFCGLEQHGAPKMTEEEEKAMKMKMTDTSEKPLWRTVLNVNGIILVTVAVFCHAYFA
Assay: Inhibition of SGLT1 (unknown origin)
pIC50: −log10 of the molar value.
experimental endpoint: pIC50

Look up pIC50 with Sodium/glucose cotransporter 1 (Homo sapiens, UniProt P13866) for this molecule: COc1ccc(Cc2sccc2O[C@@H]2O[C@H](CO)[C@@H](O)[C@H](O)[C@H]2O)cc1 < 5.00

###

Molecular target: Sodium/glucose cotransporter 2 (Rattus norvegicus)
Sequence (P53792 whole entry): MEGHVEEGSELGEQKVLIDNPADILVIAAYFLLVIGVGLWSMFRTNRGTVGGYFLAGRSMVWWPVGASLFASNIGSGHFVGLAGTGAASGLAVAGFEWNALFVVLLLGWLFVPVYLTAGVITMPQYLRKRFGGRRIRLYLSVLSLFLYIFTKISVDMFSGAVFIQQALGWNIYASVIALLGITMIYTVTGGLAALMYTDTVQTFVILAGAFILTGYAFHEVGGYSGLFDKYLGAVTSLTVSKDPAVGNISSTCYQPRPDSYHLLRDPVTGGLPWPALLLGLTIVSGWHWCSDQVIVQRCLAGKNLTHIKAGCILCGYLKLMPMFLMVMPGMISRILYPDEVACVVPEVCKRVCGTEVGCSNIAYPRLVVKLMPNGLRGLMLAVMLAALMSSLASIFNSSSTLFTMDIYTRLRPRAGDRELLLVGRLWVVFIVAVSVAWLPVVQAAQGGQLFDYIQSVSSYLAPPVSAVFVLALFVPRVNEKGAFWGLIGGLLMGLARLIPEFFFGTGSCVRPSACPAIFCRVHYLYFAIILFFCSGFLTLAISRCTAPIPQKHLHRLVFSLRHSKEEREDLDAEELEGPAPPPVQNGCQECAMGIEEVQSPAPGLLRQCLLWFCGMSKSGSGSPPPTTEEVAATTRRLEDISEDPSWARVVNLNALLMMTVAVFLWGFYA
Test: Inhibition of rat SGLT2
experimental endpoint: Ki (µM)
Answer format: numeric, µM implied, no suffix.

What Ki appears in the records for this compound with Sodium/glucose cotransporter 2 (Rattus norvegicus)? CCOC(=O)OC[C@H]1O[C@@H](Oc2nn(C(C)C)c(C)c2Cc2ccc(OC(C)C)cc2)[C@H](O)[C@@H](O)[C@@H]1O [REMOGLIFLOZIN ETABONATE] 2.14

###

Assay system Sodium/glucose cotransporter 2 (Homo sapiens); read-out recorded as Ki.
Give the number; µM is assumed, so skip it.

{"columns": ["compound", "Ki (µM)"],
 "data": [
  ["CCOC(=O)OC[C@H]1O[C@@H](Oc2nn(C(C)C)c(C)c2Cc2ccc(OC(C)C)cc2)[C@H](O)[C@@H](O)[C@@H]1O [REMOGLIFLOZIN ETABONATE]", 1.95]
]}

As a next step, examine the compound that follows.
Request - read-out Ki | tested on Sodium/glucose cotransporter 2 (Homo sapiens) | compound CCc1ccc(Cc2ccc3c(c2)[C@]2(OC3)O[C@H](CO)[C@@H](O)[C@H](O)[C@H]2O)cc1 0.0029
